Molecular target: human p38 MAP kinase (Homo sapiens)
Construct: made in house; host or cells: Sf-21 insect cells, baculovirus (BAC-HP38 co-infected with BAC-caMKK3)
Sequence (Q16539 whole entry): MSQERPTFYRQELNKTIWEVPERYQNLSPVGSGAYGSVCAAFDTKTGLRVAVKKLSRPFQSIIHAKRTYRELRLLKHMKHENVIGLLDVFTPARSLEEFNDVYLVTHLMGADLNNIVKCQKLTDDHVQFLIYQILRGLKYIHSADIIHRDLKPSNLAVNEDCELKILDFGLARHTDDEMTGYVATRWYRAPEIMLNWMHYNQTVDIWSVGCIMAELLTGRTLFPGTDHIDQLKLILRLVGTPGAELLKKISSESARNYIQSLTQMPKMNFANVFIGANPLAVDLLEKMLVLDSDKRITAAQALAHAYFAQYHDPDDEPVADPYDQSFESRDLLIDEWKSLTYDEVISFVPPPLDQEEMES
Experiment: Measurement of the p38 MAP kinase inhibitory activity, 32P uptake into Myelin Basic Protein (Reference Example F 2)
Format: biochemical
Conditions: active form p38 MAP kinase, 30° C. 60 minutes, read-out: IC50 (p38 MAP kinase inhibitory activity, uptake of 32P into acid insoluble fraction)
readoutType: IC50 (nM)

A. COc1ccc(-c2nc(N)sc2-c2ccnc(NC(=O)c3ccccc3)c2)cc1
B. Cc1cc(C)cc(-c2nc(N)sc2-c2ccnc(OCc3ccccc3)c2)c1
C. COc1ccc(-c2nc(NC(=O)c3ccccc3)sc2-c2ccnc(NC(=O)c3ccccc3)c2)cc1
D. Cc1cc(C)cc(-c2nc(N)sc2-c2ccnc(NC(=O)c3ccccc3)c2)c1
Task field, ranking: reported IC50, descending order. Please express your ranking as an ordered list of the labels.
B, C, D, A
(B: 430 nM, C: 63 nM, D: 29 nM, A: 20 nM)
